Biological target: human recombinant MMP-10 catalytic domain (Homo sapiens)
Construct: a panel of ten human recombinant MMP catalytic domains
Sequence (P09238 99-263 limits assumed): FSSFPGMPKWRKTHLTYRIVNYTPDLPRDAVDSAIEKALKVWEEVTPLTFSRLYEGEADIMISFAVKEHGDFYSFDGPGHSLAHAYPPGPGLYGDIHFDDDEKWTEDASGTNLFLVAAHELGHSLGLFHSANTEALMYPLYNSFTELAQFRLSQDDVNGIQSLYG
Test: Recombinant MMP fluorescent assay kit (OmniMMP substrate)
measuredEndpoint: IC50

smiles: Cc1cc(=O)c(O)c(C(=O)NCc2ccc(-c3ccc(-c4ccccc4)cc3)cc2)o1
measuredEndpoint: IC50
val: > 50 µM

====

Target: human recombinant MMP-12 catalytic domain (Homo sapiens, UniProt P39900)
Construct: human recombinant MMP-3 (72006, AnaSpec) and MMP-12 catalytic domains (55525-1, AnaSpec); purchased AnaSpec 55525-1
Sequence (P39900 106-263 limits assumed): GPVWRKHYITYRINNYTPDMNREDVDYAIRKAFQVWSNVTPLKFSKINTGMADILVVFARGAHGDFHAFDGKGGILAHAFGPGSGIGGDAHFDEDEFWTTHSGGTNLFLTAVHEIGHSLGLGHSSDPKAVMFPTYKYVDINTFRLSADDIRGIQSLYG
Experiment: Recombinant MMP fluorescent assay kit (OmniMMP substrate), initial screen
Type: biochemical
Conditions: pH 7.5, 1 h incubation at 37°C, OmniMMP substrate 4 μM, read-out: apparent IC50 MMP-12 (initial screen)
pIC50: −log10 of the molar value.

compound: Cc1cc(=O)c(O)c(C(=O)NCc2ccc(-c3ccc(-c4ccccc4)cc3)cc2)o1 [Compound 9]
pIC50: > 5.70
